Tested on: Fibroblast
protocolNotes: Incucyte cell viability with human fibroblast; further: filed as whole numbers so only -1 and 0 and 1 occur
Format: toxicity, cell-based
conditionDetails: 6 h, 10 µM, compound concentration 10 uM, replicate number 1, timepoint 6 hours
valueKind: Growth Rate
Lab note: jot down the number only; don't add units.

Reference set (8 entries):
Nc1nc(NCc2ccccc2)nc(-c2cccc(CO)c2)n1 :: 0
C1=N/C2=N/c3ccc(OCCN4CCCC4)c(c3)COC/C=C\COCc3cccc(c3)C(=C1)N2 :: 0
C[C@H](CO)Nc1nc(SCc2cccc(Cl)c2F)nc2[nH]c(=O)sc12 :: 1
CN(C)CC[C@@H](c1ccc(Cl)cc1)c1ccccn1.O=C(O)/C=C\C(=O)O [DEXCHLORPHENIRAMINE MALEATE] :: 1
CCOC(=O)c1cc(C#N)c(N2CCC(C(=O)NS(=O)(=O)Cc3ccccc3)CC2)nc1C :: 0
Nc1nc2c(c(N3CCNCC3)n1)CCC1=C2[C@@H]2CCCC[C@@H]2O1 :: 1
FC(F)(F)c1c(N2CCC(c3ccccc3)CC2)ccn2c(CC3CC3)nnc12 :: 1
CCC1(C2=NCCN2)Cc2ccccc2O1 (centres undefined) :: 0

Give the reported Growth Rate for CN(C)C/C=C/C(=O)Nc1cc2c(Nc3ccc(F)c(Cl)c3)ncnc2cc1O[C@H]1CCOC1.O=C(O)/C=C\C(=O)O.O=C(O)/C=C\C(=O)O [AFATINIB DIMALEATE] (system: Fibroblast).
0

###

The reader will find reported Population Mitochondria Different-Phenotype (%) values listed item by item below.
Test system: Fibroblast
protocolNotes: Multiplex assay against human fibroblast
Type: toxicity, cell-based
conditionDetails: 12 h, 10 µM, compound concentration 10 uM, replicate 2
// units = %; emit number, no label

Below are worked cases with known answers.
N#Cc1cnc(Nc2cc(NC[C@H]3CNCCO3)c(C(F)(F)F)cn2)cn1 :: 35
Nc1nc2c(c(N3CCNCC3)n1)CCC1=C2[C@@H]2CCCC[C@@H]2O1 :: 87
CNC(=O)c1cc(Oc2ccc(NC(=O)Nc3cc(C(C)(C)C)nn3-c3ccc4ncccc4c3)c(F)c2)ccn1 :: 37

Quick one: Population Mitochondria Different-Phenotype (%) of Cl.Cl.Nc1ncnc2c1c(-c1cccc(OCc3ccccc3)c1)cn2[C@H]1C[C@@H](CN2CCC2)C1 ?
97

###

Test system: U2OS
protocolNotes: Multiplex assay against U2OS
Format: toxicity, cell-based
conditionDetails: human, 24 h, 1 µM, compound concentration 1 uM, replicate 1
Label yes (1) when Population Pyknosed Nuclei (%) is strictly below 9%; at or above that, label no (0).

A selection of reference data follows.
N#Cc1cnc(Nc2cc(NC[C@H]3CNCCO3)c(C(F)(F)F)cn2)cn1 :: yes (1)
CNc1oc(-c2cccc3ccccc23)nc1C#N :: yes (1)
COc1cc2c(Nc3ccc(NC(=O)c4ccccc4)cc3)ncnc2cc1OCCCN1CCOCC1 :: no (0)
Cc1nc(Cc2cccc(C(F)(F)F)c2)sc1-c1ccc(C(N)=O)nc1 [TP-024n] :: yes (1)
CC(C)(C)c1cnc(CSc2cnc(NC(=O)C3CCNCC3)s2)o1 :: no (0)

Dear reviewer, please state whether Nc1ccc(C(=O)Nc2cccc(-c3nc(N4CCOCC4)c4oc5ncccc5c4n3)c2)cn1 has Population Pyknosed Nuclei (%) strictly beneath 9%.
no (0)

Answer whether the molecule COc1cc2c(NC3CCN(C(C)C)CC3)nc(N3CCC(F)(F)CC3)nc2cc1OCCCN1CCCC1 has Population Pyknosed Nuclei (%) strictly less than 9%
no (0)

I'd appreciate it if you could check whether O=C(O)c1ccc2cc(-c3ccc(O)c(C45CC6CC(CC(C6)C4)C5)c3)ccc2c1 has Population Pyknosed Nuclei (%) smaller than 9%.
no (0)

Consider the molecule CN(C)C/C=C/C(=O)Nc1cc2c(Nc3ccc(F)c(Cl)c3)ncnc2cc1O[C@H]1CCOC1.O=C(O)/C=C\C(=O)O.O=C(O)/C=C\C(=O)O [AFATINIB DIMALEATE] . Is its Population Pyknosed Nuclei (%) strictly less than 9%?
yes (1)

Consider the molecule CC(=O)c1cc(-c2cc(C(=O)NC3CC3)ccc2C)c2ncccn12 . Is its Population Pyknosed Nuclei (%) strictly less than 9%?
yes (1)
